Where do the numbers come from? From patent US20210395344A1.

Reported ELISA (Avg) values are given for each entry in this list.
Target: T1, SARS-CoV-2 Spike Glycoprotein S1 (subunit 1) (SARS-CoV-2, UniProt P0DTC2 16-685)
T1 construct: also called S1 Monomer; SARS-CoV-2 S1
Test: screening phage ELISA, mean
Keep it simple and answer with nothing but the number.

# annotated cases, reported ELISA (Avg) shown
• 1-21 (antibody, V domains shown) VH: EVQLLESGGGLVQPGGSLRLSCAASGFTFSSYTMSWVRQAPGKGLEWVSIISGSGGSTYYADSVKGRFTISRDNSKNTLYLQMNSLRAEDTAVYYCAREGYRDYLWYFDLWGQGTLVTVSS VL: QSALTQPASVSGSPGQSITISCTGTSSDVGSNNLVSWYQQHPGKAPKLMIYEGNKRPSGVSNRFSGSKSGNTASLTISGLQAEDEADYYCCSYAGSVVFGGGTKLTVL = 47.6
• 1-10 (antibody, V domains shown) VH: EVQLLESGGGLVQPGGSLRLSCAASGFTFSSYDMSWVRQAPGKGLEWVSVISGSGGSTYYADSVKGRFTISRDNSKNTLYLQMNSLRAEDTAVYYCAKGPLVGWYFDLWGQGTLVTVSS VL: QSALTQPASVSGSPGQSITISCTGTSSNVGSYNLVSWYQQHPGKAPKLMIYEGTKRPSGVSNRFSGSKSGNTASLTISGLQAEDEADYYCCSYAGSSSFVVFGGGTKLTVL = 16.9

# input for lookup
For the binder shown here, 1-29 (antibody, V domains shown) VH: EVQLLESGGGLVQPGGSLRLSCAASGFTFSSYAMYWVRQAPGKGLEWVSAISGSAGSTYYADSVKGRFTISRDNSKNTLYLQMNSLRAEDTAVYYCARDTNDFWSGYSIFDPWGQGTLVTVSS VL: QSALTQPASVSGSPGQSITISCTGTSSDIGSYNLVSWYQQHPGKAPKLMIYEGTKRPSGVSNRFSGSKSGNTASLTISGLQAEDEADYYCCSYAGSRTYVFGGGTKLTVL , give the reported ELISA (Avg). 23.8
